Listed here: items and their measured koff.
- ASSAY_TARGET: T1, human GPC3-His protein (human, UniProt P51654 25-559)
- T1 construct: also called human GPC3 protein; not shown: His tag
- EXPERIMENTAL_DETAILS: SPR, antibody captured on Protein A chip, human GPC3-His analyte;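 also: measured at 25 °C flow cell, human GPC3-His injected at five concentrations up to 200 nM, 240 s association, up to 600 s dissociation, double-referenced, fitted to Langmuir 1:1 model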
Respond numerically; units are s⁻¹ and should not be typed.

Below, 2 binders whose answers are already recorded.
# BINDER, READOUT_VALUE
data = [
    ("F4.13.7 (antibody, human IgG1, kappa, V domains shown, Human-murine chimeric antibody) VH: QVQLQQPGAELVKPGASVKLSCKASGYTFTNNWVHWVKQRPGQGLEWTGMIHPDSGSTIYNEKFQSKATLTVDKSSSTAYMQLSSLTSEDSAVYYCARGYYDSSSYYAMDYWGQGTSVTVSS VL: NIQMTQTTSSLSASLGDRVTISCSASQGIFNYLNWYQQKPDGTVKLLIYYTSSLHSGVPSRFSGSGSGTDYSLTISNLEPEDIATYYCQQYSKLPWTFGGGTKLEIKR", 0.00156),
    ("F1.83.6 (antibody, human IgG1, kappa, V domains shown, Human-murine chimeric antibody) VH: QVQLQQSGPELVKPGASVKISCKASGYAFSSSWMNWVKQRPGKGLEWIGRIYPGDGDTNYNGRFKGKATLTVDKSSSTAYMQLSSLTSEDSAVYFCARGGVFTMALDHWGQGTTLTVSS VL: DIQMTQSPSSLSASLGGKVTITCKASQDINKYIAWYQHKPGKGPRLLIHYTSTLQPGIPSRFSGSGSGRDYSFSISNLEPEDIATYYCLQYDNLFTFGGGTKLEIKR", 0.000493),
]

Please look at this binder and report its koff: F1.9.19 (antibody, human IgG1, kappa, V domains shown, Human-murine chimeric antibody) VH: DVQLQESGPGLVKPSQSLSLTCSVTGYSITSGYYWNWIRQFPGNRLEWMAYISYDGINNYNPSLKNRISIARDTSTNQFFLKLNSVTSEDTATYYCATTTEVALFDHWGQGTTLTVSS VL: DVLLTQTPLSLPVSLGDQASISCRSSQNIVHGNGNTYLEWFLQKPGQSPKLLIYKVSNRFSGVPDRFSGSGSGTDFTLKISRVEAEDLGLYYCFQASHVPWTFGGGTKLEIKR
0.000314

Hey, just so you know, these numbers are from patent US20260116991A1.
